- EXPERIMENTAL DETAILS: activity coefficient (dimensionless); of the first substance listed, at infinite dilution; xn = mol fraction of the nth substance listed
- RUN PARAMETERS: 270 K; Liquid; x1 = 0
Collected activity coefficient values appear next to each entry.
The answer should be written as a number, with no unit following it.

What value of activity coefficient has been recorded for this entry: C=CC=C [1,3-butadiene] + CCC(C)O
3.4

----------
- EXPERIMENTAL DETAILS: activity coefficient (dimensionless); of the first substance listed, at infinite dilution; xn = mol fraction of the nth substance listed
- RUN PARAMETERS: 310 K; Liquid; x1 = 0
QUANTITY KIND: activity coefficient
The answer should be written as a number, with no unit following it.

CCC [propane] + CCCCO; 3.6

What value of activity coefficient has been recorded for this entry: C=CC=C [1,3-butadiene] + CCC(C)O
3

What value of activity coefficient has been recorded for this entry: C/C=C/C [(E)-2-butene] + CCC(C)O
3.3

What value of activity coefficient has been recorded for this entry: C=CCC [1-butene] + CCC(C)O
3.3

What value of activity coefficient has been recorded for this entry: CC(C)C [2-methylpropane] + CCC(C)O
4.1

What value of activity coefficient has been recorded for this entry: C=CC [propene] + CCC(C)O
3

What value of activity coefficient has been recorded for this entry: C=CC [propene] + CCCCO
3

----------
Collected activity coefficient values appear next to each entry.
- EXPERIMENTAL DETAILS: activity coefficient (dimensionless); of the first substance listed, at infinite dilution; xn = mol fraction of the nth substance listed
- RUN PARAMETERS: 290 K; Liquid; x1 = 0
The answer should be written as a number, with no unit following it.

Here are 4 molecules together with their reported answers.
C=CC [propene] + CCC(C)O; 3.1
CCCC [butane] + CCC(C)O; 4
CCC [propane] + CCC(C)O; 3.5
C=CC=C [1,3-butadiene] + CCC(C)O; 3.2

What value of activity coefficient has been recorded for this entry: C=CCC [1-butene] + CCC(C)O
3.5

What value of activity coefficient has been recorded for this entry: C/C=C/C [(E)-2-butene] + CCC(C)O
3.5

What value of activity coefficient has been recorded for this entry: CC(C)C [2-methylpropane] + CCC(C)O
4.2

What value of activity coefficient has been recorded for this entry: C=C(C)C [2-methylpropene] + CCC(C)O
3.4

----------
- EXPERIMENTAL DETAILS: activity coefficient (dimensionless); of the first substance listed, at infinite dilution; xn = mol fraction of the nth substance listed
- RUN PARAMETERS: 269.99 K; Liquid; x1 = 0
Collected activity coefficient values appear next to each entry.

C=CC [propene] + CCC(C)O; 3.1
C/C=C/C [(E)-2-butene] + CCC(C)O; 3.6
C=CCC [1-butene] + CCC(C)O; 3.6

What value of activity coefficient has been recorded for this entry: CCC [propane] + CCC(C)O
3.5

----------
Collected activity coefficient values appear next to each entry.
- EXPERIMENTAL DETAILS: activity coefficient (dimensionless); of the first substance listed, at infinite dilution; xn = mol fraction of the nth substance listed
- RUN PARAMETERS: 330 K; Liquid; x1 = 0
The answer should be written as a number, with no unit following it.

Here are 8 compounds together with their reported answers.
C/C=C/C [(E)-2-butene] + CCCCO; 3.3
CCC [propane] + CCCCO; 3.6
C=CCC [1-butene] + CCC(C)O; 3.1
C/C=C/C [(E)-2-butene] + CCC(C)O; 3.1
CCC [propane] + CCC(C)O; 3.3
C=CC=C [1,3-butadiene] + CCC(C)O; 2.8
C=C(C)C [2-methylpropene] + CCCCO; 3.2
C=C(C)C [2-methylpropene] + CCC(C)O; 3

Turning now to a further compound:
What value of activity coefficient has been recorded for this entry: C=CC [propene] + CCC(C)O
2.8
